Here, each record is paired with measured growth data.
System: OVCAR-5 ovarian
Assay: NCI-60 one-dose screen, 48 h (100 = growth as untreated, 0 = no growth, -100 = all killed)
Settings: 10 µM unless noted
Protocol: Growth inhibition of the OVCAR-5 human tumor cell line is measured as a screen for anti-cancer activity. Cells are grown in 96 well plates and exposed to the test compound for 48 hours. Compounds are tested at a single concentration, which is 10^-5 M for most compounds. The reported endpoint is percent growth (GI% or GIPRCNT), where numbers from 0 - 100% represent growth inhibition, and numbers from -100% - 0 represent cell death. For example, a value of 40 represents 60% growth inhibition. […]
This is part of a sample that, as a whole, favours compounds with a hit. Of some 83,000 tested, about 20% had one in any assay.
# unit: % | format: bare number

The examples below pair each entry with its known result.
[
  {
    "molecule_smiles": "Cc1ccc2c(c1)C(=O)/C(=C/c1ccc(OCC(=O)c3ccccc3)cc1)O2",
    "subject_of_test": "OVCAR-5 ovarian",
    "measurement_unit": "%",
    "growth": 107
  },
  {
    "molecule_smiles": "Cc1cc(OCc2ccc(C(F)(F)F)cc2)c2c(c1)C(=O)C=C(NCCN1CCCC1)C2=O",
    "subject_of_test": "OVCAR-5 ovarian",
    "measurement_unit": "%",
    "growth": 87.9
  }
]

Using the record for "O=c1cc(-c2ccccc2)[nH]c2ccccc12" , report its growth.
50.6
